System: NCI-H2591 (Mesothelioma)
protocol.summary: combination Emax (second highest fraction inhibited in the dose matrix, 72 h); higher = more inhibition; extreme values may be limits of the assay
Please note: class 1 applies when combination Emax is 0.3 or greater, and class 0 applies otherwise.

Solved entries:
Cc1c2c(nn1C)CSCc1cc(n(C)n1)CSc1cc(c3ccccc3c1)OCCCc1c(C(=O)O)n(C)c3c-2c(Cl)ccc13 [AZD5991] + CC1(C)CCC(CN2CCN(c3ccc(C(=O)NS(=O)(=O)c4ccc(NCC5CCOCC5)c([N+](=O)[O-])c4)c(Oc4cnc5[nH]ccc5c4)c3)CC2)=C(c2ccc(Cl)cc2)C1 [Venetoclax] (first compound max 1 µM, 7x7, partner max 1 µM) : class 0
CN(CCO)CC[C@H](CSc1ccccc1)Nc1ccc(S(=O)(=O)NC(=O)c2ccc(N3CCC([C@@H](O)c4ccccc4-c4ccc(Cl)cc4)CC3)cc2)cc1S(=O)(=O)C(F)(F)F [AZD4320] + C=CCn1c(=O)c2cnc(Nc3ccc(N4CCN(C)CC4)cc3)nc2n1-c1cccc(C(C)(C)O)n1 [AZD1775] (first compound max 1 µM, partner max 1 µM) : class 0
CC1(C)CCC(CN2CCN(c3ccc(C(=O)NS(=O)(=O)c4ccc(NCC5CCOCC5)c([N+](=O)[O-])c4)c(Oc4cnc5[nH]ccc5c4)c3)CC2)=C(c2ccc(Cl)cc2)C1 [Venetoclax] + C=CCn1c(=O)c2cnc(Nc3ccc(N4CCN(C)CC4)cc3)nc2n1-c1cccc(C(C)(C)O)n1 [AZD1775] (first compound max 1 µM, partner max 1 µM) : class 0
Cc1cc2ncnn2cc1Nc1ncc2c(n1)n(C1CCOCC1)c(=O)n2C [AZD7648] + O=C(c1cc(Cc2n[nH]c(=O)c3ccccc23)ccc1F)N1CCN(C(=O)C2CC2)CC1 [Olaparib] (first compound max 10 µM, 7x7, partner max 10 µM) : class 0
C[C@@H]1COCCN1c1cc(C2([S@](C)(=N)=O)CC2)nc(-c2ccnc3[nH]ccc23)n1 [AZD6738] + O=C(c1cc(Cc2n[nH]c(=O)c3ccccc23)ccc1F)N1CCN(C(=O)C2CC2)CC1 [Olaparib] (first compound max 10 µM, 7x7, partner max 10 µM) : class 1

Consider the additional molecule presented here.
Task: Entry COc1cccc(OCCCN)c1-c1cc(Nc2cnc(C#N)cn2)n[nH]1 [Prexasertib] + C=CCn1c(=O)c2cnc(Nc3ccc(N4CCN(C)CC4)cc3)nc2n1-c1cccc(C(C)(C)O)n1 [AZD1775] (first compound max 1 µM, partner max 1 µM) : is its combination Emax no less than 0.3?
Result: class 1
